Biological target: T1, cynomolgus monkey CD3 expressed on T cells (cynomolgus pan T cells/PBMC, HSC-F cell line) (cynomolgus monkey, UniProt Q95LI5 22-198)
T1 construct: whole, on cells; On T cells in the CD3 complex with the other subunits; only the epsilon chain is written out; also called cyno CD3; cyno T cells
T1 sequence (Q95LI5 22-198): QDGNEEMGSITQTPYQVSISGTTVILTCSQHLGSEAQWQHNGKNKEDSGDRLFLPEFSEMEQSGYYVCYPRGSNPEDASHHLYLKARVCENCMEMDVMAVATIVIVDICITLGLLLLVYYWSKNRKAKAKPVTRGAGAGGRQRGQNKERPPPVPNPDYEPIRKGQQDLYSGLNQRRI
Assay: flow cytometry on cynomolgus T cells
readout.name: EC50

## Task Item variant 21829, monovalent anti-CD3 scFv-heterodimeric Fc (VL hC3E-1_1L1d, VH hC3E-1(N53R)) (Fc fusion, scFv order VH-(GGGGS)3-VL on Fc chain A; chain B is Fc only; also called v21829; not shown: Fc-only chain B is also left out) scFv: EVQLVESGGGLVQPGGSLRLSCAASGVTFNYYGMSWIRQAPGKGLEWVASITRSGGRIYYPDSVKGRFTISRENTQKTLYLQMNSLRAEDTAVYYCTLDGRDGWVAYWGQGTLVTVSSGGGGSGGGGSGGGGSQVVLTQPPSASGTPGQRVTISCKRNTGNIGSNYVNWYQQLPGTAPKLLIYRDDKRPDGVPDRFSGSKSGTSASLAISGLQSEDEADYYCQSYSSGFIFGGGTKLTVL : provide EC50
## Result 1.6 nM

## Task Item variant 21825, monovalent anti-CD3 scFv-heterodimeric Fc (VL hC3E-1_1L1d, VH hC3E-1(N53R_D102E)) (Fc fusion, scFv order VH-(GGGGS)3-VL on Fc chain A; chain B is Fc only; also called v21825; not shown: Fc-only chain B is also left out) scFv: EVQLVESGGGLVQPGGSLRLSCAASGVTFNYYGMSWIRQAPGKGLEWVASITRSGGRIYYPDSVKGRFTISRENTQKTLYLQMNSLRAEDTAVYYCTLDGREGWVAYWGQGTLVTVSSGGGGSGGGGSGGGGSQVVLTQPPSASGTPGQRVTISCKRNTGNIGSNYVNWYQQLPGTAPKLLIYRDDKRPDGVPDRFSGSKSGTSASLAISGLQSEDEADYYCQSYSSGFIFGGGTKLTVL : provide EC50
## Result 7 nM

## Task Item variant 21826, monovalent anti-CD3 scFv-heterodimeric Fc (VL hC3E-1 (D52N), VH hC3E-1(N53R_D102E)) (Fc fusion, scFv order VH-(GGGGS)3-VL on Fc chain A; chain B is Fc only; also called v21826; not shown: Fc-only chain B is also left out) scFv: EVQLVESGGGLVQPGGSLRLSCAASGVTFNYYGMSWIRQAPGKGLEWVASITRSGGRIYYPDSVKGRFTISRENTQKTLYLQMNSLRAEDTAVYYCTLDGREGWVAYWGQGTLVTVSSGGGGSGGGGSGGGGSNFMLTQPHSVSESPGKTVTISCKRNTGNIGSNYVNWYQQHEGSSPTTIIYRNDKRPDGVSDRFSGSIDRSSKSASLTISNLKTEDEADYFCQSYSSGFIFGGGTKLTVL : provide EC50
## Result 2.5 nM

## Task Item variant 19371, monovalent anti-CD3 scFv-heterodimeric Fc (VL hC3E-1_1L1c, VH hC3E-1) (Fc fusion, scFv order VH-(GGGGS)3-VL on Fc chain A; chain B is Fc only; also called v19371; not shown: The Fc-only chain B is not tied by number to this variant) scFv: EVQLVESGGGLVQPGGSLRLSCAASGVTFNYYGMSWIRQAPGKGLEWVASITNSGGRIYYPDSVKGRFTISRENTQKTLYLQMNSLRAEDTAVYYCTLDGRDGWVAYWGQGTLVTVSSGGGGSGGGGSGGGGSQIVLTQPPSASGTPGQRVTISCKRNTGNIGSNYVNWYQQLPGTAPKLLIYRDDKRPDGVPDRFSGSKSGTSASLAISGLQSEDEADYYCQSYSSGFIFGGGTKLTVL : provide EC50
## Result 3.4 nM

## Task Item variant 19372, monovalent anti-CD3 scFv-heterodimeric Fc (VL hC3E-1_1L1b, VH hC3E-1) (Fc fusion, scFv order VH-(GGGGS)3-VL on Fc chain A; chain B is Fc only; also called v19372; not shown: The Fc-only chain B is not tied by number to this variant) scFv: EVQLVESGGGLVQPGGSLRLSCAASGVTFNYYGMSWIRQAPGKGLEWVASITNSGGRIYYPDSVKGRFTISRENTQKTLYLQMNSLRAEDTAVYYCTLDGRDGWVAYWGQGTLVTVSSGGGGSGGGGSGGGGSQLVLTQPPSASGTPGQRVTISCKRNTGNIGSNYVNWYQQLPGTAPKLLIYRDDKRPDGVPDRFSGSKSGTSASLAISGLQSEDEADYYCQSYSSGFIFGGGTKLTVL : provide EC50
## Result 9.3 nM

## Task Item variant 21828, monovalent anti-CD3 scFv-heterodimeric Fc (VL hC3E-1 (D52N), VH hC3E-1(N53S_D102E)) (Fc fusion, scFv order VH-(GGGGS)3-VL on Fc chain A; chain B is Fc only; also called v21828; not shown: Fc-only chain B is also left out) scFv: EVQLVESGGGLVQPGGSLRLSCAASGVTFNYYGMSWIRQAPGKGLEWVASITSSGGRIYYPDSVKGRFTISRENTQKTLYLQMNSLRAEDTAVYYCTLDGREGWVAYWGQGTLVTVSSGGGGSGGGGSGGGGSNFMLTQPHSVSESPGKTVTISCKRNTGNIGSNYVNWYQQHEGSSPTTIIYRNDKRPDGVSDRFSGSIDRSSKSASLTISNLKTEDEADYFCQSYSSGFIFGGGTKLTVL : provide EC50
## Result 104 nM

## Task Item variant 21827, monovalent anti-CD3 scFv-heterodimeric Fc (VL hC3E-1_1L1d, VH hC3E-1(N53S_D102E)) (Fc fusion, scFv order VH-(GGGGS)3-VL on Fc chain A; chain B is Fc only; also called v21827; not shown: Fc-only chain B is also left out) scFv: EVQLVESGGGLVQPGGSLRLSCAASGVTFNYYGMSWIRQAPGKGLEWVASITSSGGRIYYPDSVKGRFTISRENTQKTLYLQMNSLRAEDTAVYYCTLDGREGWVAYWGQGTLVTVSSGGGGSGGGGSGGGGSQVVLTQPPSASGTPGQRVTISCKRNTGNIGSNYVNWYQQLPGTAPKLLIYRDDKRPDGVPDRFSGSKSGTSASLAISGLQSEDEADYYCQSYSSGFIFGGGTKLTVL : provide EC50
## Result 16.3 nM

## Task Item variant 19363, monovalent anti-CD3 scFv-heterodimeric Fc (VL hC3E-1_6L3a (D52N), VH hC3E-1) (Fc fusion, not shown: a dimerising Fc or GST; small tags and cut ends, scFv order VH-(GGGGS)3-VL on Fc chain A; chain B is Fc only; also called v19363) scFv: EVQLVESGGGLVQPGGSLRLSCAASGVTFNYYGMSWIRQAPGKGLEWVASITNSGGRIYYPDSVKGRFTISRENTQKTLYLQMNSLRAEDTAVYYCTLDGRDGWVAYWGQGTLVTVSSGGGGSGGGGSGGGGSQFVLTQPPSASGTPGQRVTISCKRNTGNIGSNYVNWYQQLPGTAPKTIIYRNDKRPDGVPDRFSGSIDSSSNSASLAISGLQSEDEADYYCQSYSSGFIFGGGTKLTVL : provide EC50
## Result 7.1 nM

## Task Item variant 21831, monovalent anti-CD3 scFv-heterodimeric Fc (VL hC3E-1_1L1d, VH hC3E-1(N53S)) (Fc fusion, scFv order VH-(GGGGS)3-VL on Fc chain A; chain B is Fc only; also called v21831; not shown: Fc-only chain B is also left out) scFv: EVQLVESGGGLVQPGGSLRLSCAASGVTFNYYGMSWIRQAPGKGLEWVASITSSGGRIYYPDSVKGRFTISRENTQKTLYLQMNSLRAEDTAVYYCTLDGRDGWVAYWGQGTLVTVSSGGGGSGGGGSGGGGSQVVLTQPPSASGTPGQRVTISCKRNTGNIGSNYVNWYQQLPGTAPKLLIYRDDKRPDGVPDRFSGSKSGTSASLAISGLQSEDEADYYCQSYSSGFIFGGGTKLTVL : provide EC50
## Result 40.7 nM

## Task Item variant 19370, monovalent anti-CD3 scFv-heterodimeric Fc (VL hC3E-1_1L1d, VH hC3E-1) (Fc fusion, not shown: a dimerising Fc or GST; small tags and cut ends, scFv order VH-(GGGGS)3-VL on Fc chain A; chain B is Fc only; also called v19370) scFv: EVQLVESGGGLVQPGGSLRLSCAASGVTFNYYGMSWIRQAPGKGLEWVASITNSGGRIYYPDSVKGRFTISRENTQKTLYLQMNSLRAEDTAVYYCTLDGRDGWVAYWGQGTLVTVSSGGGGSGGGGSGGGGSQVVLTQPPSASGTPGQRVTISCKRNTGNIGSNYVNWYQQLPGTAPKLLIYRDDKRPDGVPDRFSGSKSGTSASLAISGLQSEDEADYYCQSYSSGFIFGGGTKLTVL : provide EC50
## Result 2.4 nM
